// provenance: paper PMC4336144

Tested on: PfA-M1 and/or PfA-M17
ASSAY_SUMMARY: Multiplex primary screen, fluorogenic substrate Leu-Mec
Type: biochemical, Plasmodium falciparum
CONDITION_PARAMETERS: 100 μM compound, multiplex assay
REPORTED_METRIC: Activity (PfA-M1 and/or PfA-M17)

In [3]: df
Out[3]:
                                    molecule                 target                   reported_metric  endpoint_value
 0  COc1ccc2c(c1)OC(O)(C(F)(F)C(F)(F)F)CC2=O (centres unmarked) [MMV007839]  PfA-M1 and/or PfA-M17  Activity (PfA-M1 and/or PfA-M17)               R
 1  Oc1ccc(-c2nc(-c3ccc4oc5ccc(-c6[nH]c(-c7ccc(O)cc7)nc6-c6ccccc6)cc5c4c3)c(-c3ccccc3)[nH]2)cc1 [MMV000753]  PfA-M1 and/or PfA-M17  Activity (PfA-M1 and/or PfA-M17)               R
 2  Cc1ccc(-c2cc(C(=O)Nc3ccc(S(=O)(=O)N4CCCCC4)cc3)[nH]n2)c(O)c1 [MMV665906]  PfA-M1 and/or PfA-M17  Activity (PfA-M1 and/or PfA-M17)               R
 3  Cc1cccc(-n2ncc3c(O)nc(-n4nc(C)cc4NC(=O)c4cc5ccccc5o4)nc32)c1 [MMV403679]  PfA-M1 and/or PfA-M17  Activity (PfA-M1 and/or PfA-M17)               R
 4  O=C(NNc1cc(N2CCCC2)nc(N2CCCC2)n1)c1ccccc1 [MMV396770]  PfA-M1 and/or PfA-M17  Activity (PfA-M1 and/or PfA-M17)               R
 5  COc1cc(-c2nc(-c3ccccc3)c(-c3ccccc3)[nH]2)cc(OC)c1O [MMV020750]  PfA-M1 and/or PfA-M17  Activity (PfA-M1 and/or PfA-M17)               R
 6  Cc1ccnc(NC(c2cccc(OCc3ccccc3)c2)c2ccc3cccnc3c2O)c1 (centres unmarked) [MMV000720]  PfA-M1 and/or PfA-M17  Activity (PfA-M1 and/or PfA-M17)               R
 7  COc1ccc(CCN2C(=O)c3[nH]nc(-c4cc(Cl)c(C)cc4O)c3C2c2ccccc2F)cc1 (centres unmarked) [MMV396717]  PfA-M1 and/or PfA-M17  Activity (PfA-M1 and/or PfA-M17)               R
 8  OCCNc1nc(Nc2ccc(Cl)c(Cl)c2)nc2ccccc12 [MMV001041]  PfA-M1 and/or PfA-M17  Activity (PfA-M1 and/or PfA-M17)               R
 9  COc1cc(-c2nc(-c3ccc(Sc4ccccc4)cc3)c(-c3ccccc3)[nH]2)cc(OC)c1O [MMV007273]  PfA-M1 and/or PfA-M17  Activity (PfA-M1 and/or PfA-M17)               R
10  Oc1c(C(Nc2ccccn2)c2cccc(Oc3ccccc3)c2)ccc2cccnc12 (centres unmarked) [MMV665814]  PfA-M1 and/or PfA-M17  Activity (PfA-M1 and/or PfA-M17)               R
11  COc1ccc(/C=C2/SC(=Nc3ccccc3)NC2=O)cc1 [MMV665836]  PfA-M1 and/or PfA-M17  Activity (PfA-M1 and/or PfA-M17)               R
12  CCOC(=O)c1c(NC(=O)c2ccccc2)sc2c(O)c(CN(CC)CC)ccc12 [MMV665831]  PfA-M1 and/or PfA-M17  Activity (PfA-M1 and/or PfA-M17)               R
13  COc1cccc(C(=O)NC(c2ccc(C)cc2)c2cc(Cl)c3cccnc3c2O)c1 (centres unmarked) [MMV665969]  PfA-M1 and/or PfA-M17  Activity (PfA-M1 and/or PfA-M17)               R
14  CN(C)c1ccc(C=Cc2nc(=O)c3ccccc3o2)cc1 [MMV006309]  PfA-M1 and/or PfA-M17  Activity (PfA-M1 and/or PfA-M17)               R
15  c1ccc(Cn2c(/N=N/c3c(Nc4ccccc4)ccc4ccccc34)nc3ccccc32)cc1 [MMV666023]  PfA-M1 and/or PfA-M17  Activity (PfA-M1 and/or PfA-M17)               R
16  O=C(Nc1ccc(-c2nc3ccccc3[nH]2)cc1)c1ccc(Cl)c(Cl)c1 [MMV665840]  PfA-M1 and/or PfA-M17  Activity (PfA-M1 and/or PfA-M17)               R
